# MEASUREMENT_TARGET: Endothelial lipase (EL) (Homo sapiens (Human))
# ASSAY_REMARKS: Endothelial lipase (EL) enzymatic assay with fluorescent substrate A10070 in DMPG vesicles
# Type: biochemical
QUANTITY_NAME: IC50 (nM)
One number for each entry, in nM.

Would you please look over these solved cases?
[[record]]
compound = "COC(=O)Nc1cccc(-c2ccc3nc(C(C(=O)NCC(=O)NC4CC4)S(=O)(=O)Cc4cccc(C#N)c4)sc3c2)c1 (stereo not shown) [Example 278]"
uom = "nM"
value_measured = 9

[[record]]
compound = "COCCS(=O)(=O)C(C(=O)NCC(=O)NC1CC1)c1nc2cc(C(F)(F)F)c(-c3ccc(F)nc3)cc2s1 (stereo not shown) [Example 173]"
uom = "nM"
value_measured = 32

[[record]]
compound = "COCCS(=O)(=O)C(C(=O)NCC(=O)NC1CC1)c1nc2cc(C)c(-c3cnnc(C)c3)cc2s1 (stereo not shown) [Example 186]"
uom = "nM"
value_measured = 40


Note: attention shifts to another entry.
**Query** Record request: IC50 value, item CC(C)OCCNC(=O)CNC(=O)C(c1nc2cc(F)cc(-c3ccc(F)nc3)c2s1)S(=O)(=O)c1ccc(F)cc1 (stereo not shown) [Example 465]
**Result** 53

====

# MEASUREMENT_TARGET: Endothelial lipase (EL) (Homo sapiens (Human), UniProt Q9Y5X9)
# Sequence (Q9Y5X9 21-500): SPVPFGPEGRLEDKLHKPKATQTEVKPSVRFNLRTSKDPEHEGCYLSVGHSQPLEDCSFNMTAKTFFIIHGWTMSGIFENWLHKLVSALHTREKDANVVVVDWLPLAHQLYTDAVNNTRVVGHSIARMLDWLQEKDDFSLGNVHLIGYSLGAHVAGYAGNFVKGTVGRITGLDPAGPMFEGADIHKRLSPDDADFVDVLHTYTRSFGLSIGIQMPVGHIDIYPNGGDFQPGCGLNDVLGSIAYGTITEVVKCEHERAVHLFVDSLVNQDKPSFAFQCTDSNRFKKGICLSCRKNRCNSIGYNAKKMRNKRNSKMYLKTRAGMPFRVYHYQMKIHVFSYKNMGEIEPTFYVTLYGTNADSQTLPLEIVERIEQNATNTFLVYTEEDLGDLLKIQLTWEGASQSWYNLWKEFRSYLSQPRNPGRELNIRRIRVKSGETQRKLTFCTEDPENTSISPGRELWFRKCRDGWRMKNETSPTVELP
# ASSAY_REMARKS: Endothelial lipase (EL) enzymatic assay with fluorescent substrate A10070 in DMPG vesicles
# Type: biochemical
QUANTITY_NAME: IC50 (nM)
Answers are plain numbers, in nM.

Field: IC50. Fill in for each record below.
1. O=C(CNC(=O)C(c1nc2cc(F)c(-c3ccc(-n4cccn4)cc3)cc2s1)S(=O)(=O)CCC(F)(F)F)NC1CC1 (stereo not shown)
2. COC(=O)Nc1ccc(-c2cc(Cl)c3nc(C(C(=O)NCC(=O)NC4CC4)S(C)(=O)=O)sc3c2)cc1F (stereo not shown)
3. CC(C)OCCNC(=O)CNC(=O)C(c1nc2ccc(-c3ccc(F)nc3)cc2s1)S(=O)(=O)c1ccc(F)cc1 (stereo not shown)
4. CC(C)(C)OC(=O)N1CC(S(=O)(=O)C(C(=O)NCC(=O)NC2CC2)c2nc3ccc(-c4ccc(F)nc4)cc3s2)C1 (stereo not shown)
5. O=C(CNC(=O)C(c1nc2ccc(-c3cncnc3)cc2s1)S(=O)(=O)c1ccccc1)NC1CC1 (stereo not shown)
6. COCCS(=O)(=O)C(C(=O)NCC(=O)NC1CC1)c1nc2ccc(-c3ccnc(O)c3)cc2s1 (stereo not shown)
7. O=C(CNC(=O)C(c1nc2ccc(-c3ccc(F)nc3)cc2s1)S(=O)(=O)c1ccc(F)cc1)NC1CC1 (stereo not shown)

**Result**
1. 6
2. 2
3. 100
4. 103
5. 61
6. 14
7. 24

====

# MEASUREMENT_TARGET: Endothelial lipase (EL) (Homo sapiens (Human))
# ASSAY_REMARKS: Endothelial lipase (EL) enzymatic assay with fluorescent substrate A10070 in DMPG vesicles
# Assay type: biochemical
QUANTITY_NAME: IC50 (nM)
Numbers only, in nM.

Sample records with IC50:
[[record]]
molecule = "O=C(CNC(=O)C(c1nc2cc(F)c(-c3ccc(NC(=O)OCc4ccccc4)cc3)cc2s1)S(=O)(=O)C1CC1)NC1CC1 (stereo not drawn)"
value_measured = 3

[[record]]
molecule = "Cc1cc2nc(C(C(=O)NCC(=O)NC3CC3)S(=O)(=O)C(C)C)sc2cc1-c1ccc(=O)n(C(C)C)c1 (stereo not drawn)"
value_measured = 10


Look at each molecule and report its IC50.
1. COCCNC(=O)CNC(=O)C(c1nc2ccc(-c3ccc(C(=O)NCCOC)cc3)cc2s1)S(=O)(=O)c1ccc(F)cc1 (stereo not drawn)
2. COCCS(=O)(=O)C(C(=O)NCC(=O)NC1CC1)c1nc2c(F)cc(-c3ccc(F)nc3)cc2s1 (stereo not drawn)
3. COC(=O)Nc1ccc(-c2cc3sc(C(C(=O)NCC(=O)NC4CC4)S(=O)(=O)c4ccc(F)cc4)nc3cc2F)cc1 (stereo not drawn)
4. O=C(CNC(=O)C(c1nc2ccc(-c3cncnc3)cc2s1)S(=O)(=O)c1ccc(F)cc1)NC1CC1 (stereo not drawn)
5. O=C(CNC(=O)C(c1nc2ccc(-c3ccc(F)nc3)cc2s1)S(=O)(=O)CCC(F)(F)F)NC1CC1 (stereo not drawn)
6. COCCS(=O)(=O)C(C(=O)NCC(=O)NC1CC1)c1nc2ccc(-c3ccc(C(=O)N4CCOCC4)cc3)cc2s1 (stereo not drawn)
7. COCCS(=O)(=O)C(C(=O)NCC(=O)NC1CC1)c1nc2cc(F)c(-c3ccc(C)nc3)cc2s1 (stereo not drawn)

**Result**
1: 4; 2: 43; 3: 2; 4: 47; 5: 29; 6: 50; 7: 11

Provide the reported IC50 of each entry below, same order.
1. CS(=O)(=O)C(C(=O)NCC(=O)NC1CC1)c1nc2cc(F)c(-c3ccc(NC(=O)CCc4ccccc4)cc3)cc2s1 (stereo not drawn)
2. COCCS(=O)(=O)C(C(=O)NCC(=O)NC1CC1)c1nc2cc(F)c(-c3ccc(-c4ccno4)cc3)cc2s1 (stereo not drawn)
3. COCCS(=O)(=O)C(C(=O)NCC(=O)NC1CC1)c1nc2cc(C(=O)N3CC(C)(OC)C3)c(F)cc2s1 (stereo not drawn)
4. CC(C)S(=O)(=O)C(C(=O)NCC(=O)NC1CC1)c1nc2cc(C(F)(F)F)c(Br)cc2s1 (stereo not drawn)
5. O=C(CNC(=O)C(c1nc2cc(F)c(-c3ccc(NC(=O)OCc4ccccc4)cc3)cc2s1)S(=O)(=O)CCCC(F)(F)F)NC1CC1 (stereo not drawn)
6. O=C(CNC(=O)C(c1nc2cc(F)c(-c3cccc(NC(=O)OCc4ccccc4)c3)cc2s1)S(=O)(=O)C1CC1)NC1CC1 (stereo not drawn)
7. O=C(CNC(=O)C(c1nc2ccc(-c3ccc(C(=O)N4CCOCC4)cc3)cc2s1)S(=O)(=O)c1ccc(F)cc1)NC1CC1 (stereo not drawn)

**Result**
[1, 3, 69, 82, 2, 1, 10]

Quick request: IC50 for each listed item, please.
1. O=C(CNC(=O)C(c1nc2cc(F)c(-c3ccc(NC(=O)OCc4ccccc4)cc3)cc2s1)S(=O)(=O)CCN1CCOCC1)NC1CC1 (stereo not drawn)
2. COCCNC(=O)c1ccc(-c2cc3sc(C(C(=O)NCC(=O)NC4CC4)S(=O)(=O)CCOC)nc3cc2Cl)cc1 (stereo not drawn)
3. CS(=O)(=O)C(C(=O)NCC(=O)NC1CC1)c1nc2cc(F)c(-c3cccc(NC(=O)OCc4ccccc4)c3)cc2s1 (stereo not drawn)
4. COC(=O)Nc1ccc(-c2cc3nc(C(C(=O)NCC(=O)NC4CC4)S(C)(=O)=O)sc3cc2F)cc1 (stereo not drawn)
5. COCCS(=O)(=O)C(C(=O)NCC(=O)NC1CC1)c1nc2c(F)cc(-c3cnc(OC)c(F)c3)cc2s1 (stereo not drawn)
6. COCCS(=O)(=O)C(C(=O)NCC(=O)NC1CC1)c1nc2cc(F)c(-c3ccc(=O)n(C(C)C)c3)cc2s1 (stereo not drawn)
7. COCCS(=O)(=O)C(C(=O)NCC(=O)NC1CC1)c1nc2cc(C)c(-c3ccc4c(cnn4C)c3)cc2s1 (stereo not drawn)

**Result**
1
8
1
4
9
12
2

Please state, for each entry, its recorded IC50.
1. COCCS(=O)(=O)C(C(=O)NCC(=O)NC1CC1)c1nc2cc(C(=O)OC(C)(C)C)ccc2s1 (stereo not drawn)
2. COCCS(=O)(=O)C(C(=O)NCC(=O)NC1CC1)c1nc2ccc(-c3ccc(C(=O)N4CC[C@@H](OC)C4)cc3)cc2s1 (stereo partly drawn)
3. COC(=O)N(C)c1cccc(-c2ccc3nc(C(C(=O)NCC(=O)NC4CC4)S(=O)(=O)CCC(F)(F)F)sc3c2)c1 (stereo not drawn)
4. O=C(CNC(=O)C(c1nc2cc(F)c(-c3ccc(-c4ccn[nH]4)cc3)cc2s1)S(=O)(=O)CCC(F)(F)F)NC1CC1 (stereo not drawn)

**Result**
66
24
7
1

====

# MEASUREMENT_TARGET: Endothelial lipase (EL) (Homo sapiens (Human), UniProt Q9Y5X9)
# ASSAY_REMARKS: Endothelial lipase (EL) enzymatic assay with fluorescent substrate A10070 in DMPG vesicles
# Format: biochemical
Classes by IC50: low range: < 0.007 µM; mid range: ≥ 0.007 µM and < 0.04 µM; high range: ≥ 0.04 µM

Here are 10 compounds together with their reported answers.
[[record]]
compound = "N#Cc1cccc(COC(=O)Nc2ccc(-c3cc4sc(C(C(=O)NCC(=O)NC5CC5)S(=O)(=O)C5CC5)nc4cc3F)cc2)c1 (centres unmarked)"
cat = "low range"

[[record]]
compound = "CS(=O)(=O)C(C(=O)NCC(=O)NC1CC1)c1nc2cc(F)c(-c3cccc(C(N)=O)c3)cc2s1 (centres unmarked)"
cat = "mid range"

[[record]]
compound = "COCCS(=O)(=O)C(C(=O)NCC(=O)NC1CC1)c1nc2cc(-c3cnc(-n4cccn4)nc3)c(F)cc2s1 (centres unmarked)"
cat = "high range"

[[record]]
compound = "CN(C)S(=O)(=O)C(C(=O)NCC(=O)NC1CC1)c1nc2c(F)cc(-c3ccc(-c4nnn[nH]4)cc3)cc2s1 (centres unmarked)"
cat = "mid range"

[[record]]
compound = "CC(C)S(=O)(=O)C(C(=O)NCC(=O)NC1CC1)c1nc2cc(F)c(-c3ccc(NC(=O)OCc4ccccc4)cc3)cc2s1 (centres unmarked)"
cat = "low range"

[[record]]
compound = "COCCS(=O)(=O)C(C(=O)NCC(=O)NC1CC1)c1nc2cc(F)c(-c3ccc(NC(=O)OCc4ccccn4)cc3)cc2s1 (centres unmarked)"
cat = "low range"

[[record]]
compound = "COCCS(=O)(=O)C(C(=O)NCC(=O)NC1(c2ncon2)CC1)c1nc2ccc(-c3ccc(F)nc3)cc2s1 (centres unmarked)"
cat = "high range"

[[record]]
compound = "COCCS(=O)(=O)C(C(=O)NCC(=O)NC1CC1)c1nc2cc(-c3ccncc3Cl)ccc2s1 (centres unmarked)"
cat = "high range"

[[record]]
compound = "CC(C)S(=O)(=O)C(C(=O)NCC(=O)NC1CC1)c1nc2cc(F)c(-c3cnc(=O)[nH]c3)cc2s1 (centres unmarked)"
cat = "high range"

[[record]]
compound = "CC1(O)CN(C(=O)c2ccc(-c3ccc4nc(C(C(=O)NCC(=O)NC5CC5)S(=O)(=O)c5ccccc5)sc4c3)cc2)C1 (centres unmarked)"
cat = "low range"


--- query ---
**Query** Band assignment needed for COCCS(=O)(=O)C(C(=O)NCC(=O)NC1COC1)c1nc2ccc(-c3ccc(F)nc3)cc2s1 (centres unmarked) please.
**Result** mid range

Value source: patent US10173991B2
